target: T1, Tryptase, from human lung (human, UniProt Q15661 31-275, limits assumed); experiment: enzyme inhibition, pNA substrate
T1 construct: purified natural enzyme, bought
T1 sequence (Q15661 31-275 limits assumed): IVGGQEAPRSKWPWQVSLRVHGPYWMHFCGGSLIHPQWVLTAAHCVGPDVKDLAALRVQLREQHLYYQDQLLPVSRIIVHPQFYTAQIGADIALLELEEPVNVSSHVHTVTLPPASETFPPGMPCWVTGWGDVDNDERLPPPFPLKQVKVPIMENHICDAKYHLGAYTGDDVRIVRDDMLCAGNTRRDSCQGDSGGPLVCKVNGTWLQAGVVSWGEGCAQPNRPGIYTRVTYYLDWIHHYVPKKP
Bridges are numbered along the chain shown (N, C = ends). Primed or numbered codes have the meaning given here. [ ]: non-standard residue; d: D form. Pro(4NHCOPhe)″ = 4-benzamido-L-proline, (2S)-4-benzoylamino-pyrrolidine-2-carboxylic acid; Nle = CCCC[C@H](N)C(=O)O
# reported % inhibition at 100 µM; entries follow

binder: XCTASIPPQCX (HELM PEPTIDE1{[Nle].C.T.A.S.I.P.P.Q.C.[Phg].[dP].P}$PEPTIDE1,PEPTIDE1,2:R3-10:R3|PEPTIDE1,PEPTIDE1,1:R1-13:R2$$$V2.0; SMILES CCCC[C@@H]1NC(=O)[C@@H]2CCCN2C(=O)[C@H]2CCCN2C(=O)[C@H](c2ccccc2)NC(=O)[C@@H]2CSSC[C@H](NC1=O)C(=O)N[C@@H]([C@@H](C)O)C(=O)N[C@@H](C)C(=O)N[C@@H](CO)C(=O)N[C@@H]([C@@H](C)CC)C(=O)N1CCC[C@H]1C(=O)N1CCC[C@H]1C(=O)N[C@@H](CCC(N)=O)C(=O)N2, also called Ex. 98) [Example 98]
units.symbol: %
% inhibition at 100 µM: 0
//
binder: XCTASIPPQCY (HELM PEPTIDE1{[Nle].C.T.A.S.I.P.P.Q.C.Y.[dP].P}$PEPTIDE1,PEPTIDE1,2:R3-10:R3|PEPTIDE1,PEPTIDE1,1:R1-13:R2$$$V2.0; SMILES CCCC[C@@H]1NC(=O)[C@@H]2CCCN2C(=O)[C@H]2CCCN2C(=O)[C@H](Cc2ccc(O)cc2)NC(=O)[C@@H]2CSSC[C@H](NC1=O)C(=O)N[C@@H]([C@@H](C)O)C(=O)N[C@@H](C)C(=O)N[C@@H](CO)C(=O)N[C@@H]([C@@H](C)CC)C(=O)N1CCC[C@H]1C(=O)N1CCC[C@H]1C(=O)N[C@@H](CCC(N)=O)C(=O)N2) [Example 179]
units.symbol: %
% inhibition at 100 µM: 0
//
binder: cyclo([Nle]CTASIP[Pro(4NHCOPhe)″]QCY[dP]P) (disulfide 2-10) [Example 138]
units.symbol: %
% inhibition at 100 µM: 0
//
binder: XQTASIPPQTY (HELM PEPTIDE1{[CCCCCCCC[C@H](N[*:1])C(=O)[*:2]].Q.T.A.S.I.P.P.Q.T.Y.[dP].P}$PEPTIDE1,PEPTIDE1,1:R1-13:R2$$$V2.0; SMILES CCCCCCCC[C@@H]1NC(=O)[C@@H]2CCCN2C(=O)[C@H]2CCCN2C(=O)[C@H](Cc2ccc(O)cc2)NC(=O)[C@H]([C@@H](C)O)NC(=O)[C@H](CCC(N)=O)NC(=O)[C@@H]2CCCN2C(=O)[C@@H]2CCCN2C(=O)[C@H]([C@@H](C)CC)NC(=O)[C@H](CO)NC(=O)[C@H](C)NC(=O)[C@H]([C@@H](C)O)NC(=O)[C@H](CCC(N)=O)NC1=O) [Example 154]
units.symbol: %
% inhibition at 100 µM: 15
